- tested target: Tyrosine-protein phosphatase non-receptor type 1 (Homo sapiens) (UniProt P18031)
- Sequence (P18031 whole entry): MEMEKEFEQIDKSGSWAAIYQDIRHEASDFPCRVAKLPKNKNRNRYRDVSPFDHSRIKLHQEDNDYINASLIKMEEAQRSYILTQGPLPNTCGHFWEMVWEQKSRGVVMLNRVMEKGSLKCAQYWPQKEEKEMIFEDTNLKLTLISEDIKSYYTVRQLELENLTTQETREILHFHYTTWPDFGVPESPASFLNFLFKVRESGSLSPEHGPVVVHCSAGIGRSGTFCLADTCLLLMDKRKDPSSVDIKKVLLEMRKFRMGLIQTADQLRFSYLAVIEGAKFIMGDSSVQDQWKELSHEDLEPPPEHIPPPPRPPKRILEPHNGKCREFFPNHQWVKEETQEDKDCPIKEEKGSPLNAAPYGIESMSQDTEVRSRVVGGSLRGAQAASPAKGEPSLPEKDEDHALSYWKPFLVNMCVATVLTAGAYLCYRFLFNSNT
- test method notes: Inhibitory activity against human protein tyrosine phosphatase 1B (PTP1B) at a concentration of 100 uM
measured quantity: inhibition (%)

> print(dat)
                                    compound  measured.quantity  measured.result
 1  CCCCCNC(=O)[C@H](Cc1ccc(OC(C(=O)O)C(=O)O)cc1)NC(=O)[C@H](Cc1ccccc1)NC(=O)CCN(CC)CC         inhibition               92
 2  CCCCCNC(=O)[C@H](Cc1ccc(OC(C(=O)O)C(=O)O)cc1)NC(=O)[C@H](Cc1c[nH]c2ccccc12)NC(=O)OC(C)(C)C         inhibition               89
 3  CCCCCNC(=O)[C@H](Cc1ccc(OC(C(=O)O)C(=O)O)cc1)NC(=O)[C@H](COCc1ccccc1)NC(=O)OC(C)(C)C         inhibition               71
 4  CCCCCNC(=O)[C@H](Cc1ccc(OC(C(=O)O)C(=O)O)cc1)NC(=O)[C@H](Cc1ccccc1)NC(=O)NC(C)(C)C         inhibition               86
 5  CCCCCNC(=O)[C@H](Cc1ccc(OC(C(=O)O)C(=O)O)cc1)NC(=O)[C@H](Cc1cccc2ccccc12)NC(=O)OC(C)(C)C         inhibition               86
 6  CCCCCNC(=O)[C@H](Cc1ccc(OC(C(=O)O)C(=O)O)cc1)NC(=O)[C@H](CC(N)=O)NC(=O)OC(C)(C)C         inhibition               85
 7  CCCCCNC(=O)[C@H](Cc1ccc(OC(C(=O)O)C(=O)O)cc1)NC(=O)[C@H](CCSC)NC(=O)OC(C)(C)C         inhibition               82
 8  CCCCCNC(=O)[C@H](Cc1ccc(OC(C(=O)O)C(=O)O)cc1)NC(=O)[C@H](Cc1ccccc1)NC(=O)CCOC         inhibition               94
 9  CCCCCNC(=O)[C@H](Cc1ccc(OC(C(=O)O)C(=O)O)cc1)NC(=O)[C@H](CC1CCCCC1)NC(=O)OC(C)(C)C         inhibition               88
10  CCCCCNC(=O)[C@H](Cc1ccc(OC(C(=O)O)C(=O)O)cc1)NC(=O)[C@H](Cc1ccc2ccccc2c1)NC(=O)OC(C)(C)C         inhibition               90
11  CCCCCNC(=O)[C@H](Cc1ccc(OC(C(=O)O)C(=O)O)cc1)NC(=O)[C@H](Cc1c(F)c(F)c(F)c(F)c1F)NC(=O)OC(C)(C)C         inhibition               80
12  CCCCCNC(=O)[C@H](Cc1ccc(OC(C(=O)O)C(=O)O)cc1)NC(=O)[C@H](CC(C)C)NC(=O)OC(C)(C)C         inhibition               76
13  CCCCCNC(=O)[C@H](Cc1ccc(OC(C(=O)O)C(=O)O)cc1)NC(=O)[C@H](Cc1ccccc1)NC(=O)OC(C)(C)C         inhibition               91
14  CCCCCNC(=O)[C@H](Cc1ccc(OC(C(=O)O)C(=O)O)cc1)NC(=O)[C@H](CSCc1ccccc1)NC(=O)OC(C)(C)C         inhibition               83
15  CCCCCNC(=O)[C@H](Cc1ccc(OC(C(=O)O)C(=O)O)cc1)NC(=O)[C@H](Cc1ccccc1)NS(=O)(=O)Cc1ccccc1         inhibition               62
16  CCCCCNC(=O)[C@H](Cc1ccc(OC(C(=O)O)C(=O)O)cc1)NC(=O)[C@H](CCc1ccccc1)NC(=O)OC(C)(C)C         inhibition               77
17  CCCCCNC(=O)[C@H](Cc1ccc(OC(C(=O)O)C(=O)O)cc1)NC(=O)[C@H](C)NC(=O)OC(C)(C)C         inhibition               83
18  CCCCCNC(=O)[C@H](Cc1ccc(OC(C(=O)O)C(=O)O)cc1)NC(=O)[C@H](Cc1ccc(O)cc1)NC(=O)OC(C)(C)C         inhibition               90
19  CCCCCNC(=O)[C@H](Cc1ccc(OC(C(=O)O)C(=O)O)cc1)NC(=O)[C@H](Cc1ccccc1)NS(C)(=O)=O         inhibition               86
20  CCCCCNC(=O)[C@H](Cc1ccc(OC(C(=O)O)C(=O)O)cc1)NC(=O)[C@H](CC[S+](C)[O-])NC(=O)OC(C)(C)C (some centres not stated)         inhibition               67
21  CCCCCNC(=O)[C@H](Cc1ccc(OC(C(=O)O)C(=O)O)cc1)NC(=O)[C@H](Cc1ccccc1)NC(=O)CCNC(=O)OC(C)(C)C         inhibition               93
22  CCCCCNC(=O)[C@H](Cc1ccc(OC(C(=O)O)C(=O)O)cc1)NC(=O)[C@@H](NC(=O)OC(C)(C)C)C(C)C         inhibition               72
